Where do the numbers come from? From the nanobody polyreactivity screen of Harvey et al. (2022).

ASSAY NOTES: yeast display, Sf9 membrane polyspecificity reagent, FACS + sequencing; frameworks hold sequencing errors
MEASURED ENDPOINT: polyreactivity (PSR sort gate)

{"SEQUENCE INPUT": "QAQLQESGGSLVQAGGGLRLSCAASGYISVGSVMGWYRQAPSKERELVASIDQGANTNYADSVKGRFTISRDNAKNNVYLQMNSLKPEDTAVYYCATVTTYILNYWGQGTQVTVCS", "MEASURED ENDPOINT": "polyreactivity (PSR sort gate)", "VALUE REPORTED": "low polyreactivity"}
{"SEQUENCE INPUT": "QVQLVESGGGLVQAGGSLRLSCAASGSIFYDNAMGWYRQAPGKERELVAVISNSGRTDYADSVKGRFTISRDNAKNTVYLQMNSLKPEDTAVYYCAAVVQGTTVWWGYDYWGQGTQVTVSS", "MEASURED ENDPOINT": "polyreactivity (PSR sort gate)", "VALUE REPORTED": "low polyreactivity"}
{"SEQUENCE INPUT": "QVQVVESGGGLVQAGGSLRLSCAASGSTFSIYAMGCYRQAPGKERELVAAISSSGGSTYYADSVKGRFTISRDNGKNTVYLQMNSLKPEDTAVYYCNKRKYHVRYDYWGQGTQVTVSS", "MEASURED ENDPOINT": "polyreactivity (PSR sort gate)", "VALUE REPORTED": "low polyreactivity"}
{"SEQUENCE INPUT": "QVQLVESGGGLVQAGGSLRLSCAASGSIFADYAMGWYRQAPGKERELVAAITGSGGRTYYADSVKGRFTISRDNAKNTVYLQMNSLKPEDTAVYYCAAEGTTWYYDMDYWGQGTQVTVSS", "MEASURED ENDPOINT": "polyreactivity (PSR sort gate)", "VALUE REPORTED": "low polyreactivity"}
{"SEQUENCE INPUT": "QVQLVESGGGLVQAGGSLRLSCAASGSTFSPYAMGWYRQAPGKERELVANITISGGSTYYADSVKGRFTISRDTAKNTVYLQMNSLKPEDTAVYYCNADSLIRWLFTVVILDYWGQGTLVTVSS", "MEASURED ENDPOINT": "polyreactivity (PSR sort gate)", "VALUE REPORTED": "low polyreactivity"}

* * *

ASSAY NOTES: yeast display, Sf9 membrane polyspecificity reagent, FACS + sequencing; frameworks hold sequencing errors
MEASURED ENDPOINT: polyreactivity (PSR sort gate)

{"SEQUENCE INPUT": "QVQLVESGGGLVQAGGSLRLSCAASGRTFYPYAMGWYRQAPGKERELVARISRGGRTNYADSVKGRFTISRDNAKNTVYLQMNSLKPEDTAVYYCAADYYGSYFITEDYWGQGTQVTVSS", "MEASURED ENDPOINT": "polyreactivity (PSR sort gate)", "VALUE REPORTED": "low polyreactivity"}
{"SEQUENCE INPUT": "QVQLVESGGGLVQAGGSLRLSCAASGSTFTLYAMGWYRQAPGKERELVATITGSGGSTNYADSVKGRFTISRDNAKNTVYLQMNSLKPEDTAVYYCAADYAVYSFTEFNYWGHGTQVTVSS", "MEASURED ENDPOINT": "polyreactivity (PSR sort gate)", "VALUE REPORTED": "high polyreactivity"}
{"SEQUENCE INPUT": "QVQLVESGGGLDQAGGSLRLSCAASGFTFRWYAMGWYRQAPGKERELVAAISRGGNTNYADSVKGRFTISRDNAKNTVYLQMNSLKPEDSAVYYCARNTGPYLGYYHRYYWGHGTQVTVSS", "MEASURED ENDPOINT": "polyreactivity (PSR sort gate)", "VALUE REPORTED": "high polyreactivity"}
{"SEQUENCE INPUT": "QVQLVESGGGLVQAGGSLRLSCAASGSTFLDYAMGWYRQAPGKDRELVAAISTDDSSTYYADSVKGRFTISRDNAKNTVYLQMNSLKPEDTAVYYCAADDRDWVNFDYWGQGTQVTVSS", "MEASURED ENDPOINT": "polyreactivity (PSR sort gate)", "VALUE REPORTED": "low polyreactivity"}
{"SEQUENCE INPUT": "QVQLVESGGGLDQAGGSLRLSCAASGSTFNSYVMGCYRQAPGKEREFVAAISWSGVRTYYADSVKGRFTISRDNAKNTVFLQMNSLIPEDTAVYYCAVRSGRRNYYRPAFGYWGQGTQVTVSS", "MEASURED ENDPOINT": "polyreactivity (PSR sort gate)", "VALUE REPORTED": "high polyreactivity"}
{"SEQUENCE INPUT": "QVQLVESGGGLVQAGGSLRLSCAASGRTFNYYAMGWYRQAPGKERELVAAISSSGGRTYYADSVKGRFTISRDNAKNTVYLQMNSLKPEDTAVYYCAADSFYYRPEYDYWGQGTQVTVSS", "MEASURED ENDPOINT": "polyreactivity (PSR sort gate)", "VALUE REPORTED": "low polyreactivity"}
{"SEQUENCE INPUT": "QVQLQESGGRLVQAGGSLRMSCAASGTIFSEANMGWYRQAPGKERELVATIGQGSTTNYADSVKGLFTISRDNAKNTVYLQMNSLKPEETAVYYCAVVTVDPVGFVYWGQGTQVTVSS", "MEASURED ENDPOINT": "polyreactivity (PSR sort gate)", "VALUE REPORTED": "low polyreactivity"}
{"SEQUENCE INPUT": "QVQLVESGGGLLQAGGSLRLSCAASGRTFHTYAMGWYRHAPGKERELVAAISRSGGSTYYADSVKGRFTISRDNAMNPVYLQMNSLKPEDTAVYYCADTAGYWGQGTQVTVSS", "MEASURED ENDPOINT": "polyreactivity (PSR sort gate)", "VALUE REPORTED": "high polyreactivity"}
{"SEQUENCE INPUT": "QVQLVESGGGLVQAGGSLRLSCAASGRIFGFYAMGWSRQAPGKERELVPGITGSGDGTYADSVKGRFTISRDNAKNTVYLQMNSLKPEDTAVYYCAADYAVGKHWRYGTYRGHYWGQGTQVTVSS", "MEASURED ENDPOINT": "polyreactivity (PSR sort gate)", "VALUE REPORTED": "low polyreactivity"}
{"SEQUENCE INPUT": "QVQLVESGGGLVQAGGSLRLSCAATGSTFHNYAMGWYRQAPGKERELGAGISVRGGGTYYADSVKGRFTISRDNAKNTVYLQMNSLKPEDTAVYYFAKRSRYYYRYDYWGQGTQVTVSS", "MEASURED ENDPOINT": "polyreactivity (PSR sort gate)", "VALUE REPORTED": "high polyreactivity"}
{"SEQUENCE INPUT": "QVQLVESGGGLVQAGGSLRLSCAASGSTFPYYGLGWYRQAPGKERELVAVISRRGTGTYYADSVKGRFTISRDNAKNTVYLQMNSLKPEDTAVYYCATAGYFIYWGQGTQVTVSS", "MEASURED ENDPOINT": "polyreactivity (PSR sort gate)", "VALUE REPORTED": "low polyreactivity"}

* * *

ASSAY NOTES: yeast display, Sf9 membrane polyspecificity reagent, FACS + sequencing; frameworks hold sequencing errors
MEASURED ENDPOINT: polyreactivity (PSR sort gate)

{"SEQUENCE INPUT": "QVQLVESGGGLVQAGGSLRLSCAASGSIFGGNAMGWYRQAPGKERELVAVISWSGGSTYYADSVKGRFTISRDNAKNTVYVQMNSLKPEDTAVYYCATSSVAEAKYVTEGTFDYWGQGTQVTVSS", "MEASURED ENDPOINT": "polyreactivity (PSR sort gate)", "VALUE REPORTED": "low polyreactivity"}
{"SEQUENCE INPUT": "QVQLVESGGGLVQAGGSLRVSCAASGSFFVPYAMGWYRHAPGKERELVAAISRGGDTNYADSEKGRFTISRDNAKNTVYLQRNSLKPEDTAVYYCNRARHHYSRWHGGYYYWGQGTQETVSS", "MEASURED ENDPOINT": "polyreactivity (PSR sort gate)", "VALUE REPORTED": "low polyreactivity"}

* * *

ASSAY NOTES: yeast display, Sf9 membrane polyspecificity reagent, FACS + sequencing; frameworks hold sequencing errors

{"SEQUENCE INPUT": "QVQLVETGGGLVQAGGSLRLSCAASGRIFGDNAMGWYRQAPGKEREFVATINGSGGSTYYADSVKGRFTISRDNAKNTVYLKMNRLKPEDTAVYYCFVQQNYGYDYWGQGTQVTVSS", "polyreactivity (PSR sort gate)": "low polyreactivity"}
{"SEQUENCE INPUT": "QVQLVESGGGLVQAGGSHRLSCAASGRIFQRNTMGWYRQAPGKERELVARINYSGGSTYYADSVKGRFTISRDNAKNTVYLQMNSLKPEDTAVYYCAARVWTWSIYYRAGLSSYDYWGQGTQVTVSS", "polyreactivity (PSR sort gate)": "low polyreactivity"}

* * *

ASSAY NOTES: yeast display, Sf9 membrane polyspecificity reagent, FACS + sequencing; frameworks hold sequencing errors

{"SEQUENCE INPUT": "QVQLVDSVVGLVQAGGSLRLSFAASGYTYHYYAMGWYRQAPGKETELVAAISGSGSSTYYADSVKGRFTISRDNAKNTVYLQMNSLKPEDTAVYYCNARGHYPRARFGYKSGSDRYWGQGTQVTVSS", "polyreactivity (PSR sort gate)": "high polyreactivity"}
{"SEQUENCE INPUT": "QVQLVESGGGLVLAGGSLRLSCAASGRPFYGNTMGWYRQAPGKERELVAAISYSGGTTSYADSVKGRFTISRDNAKNTVYLQMNSLKPEDTAVYYCAKRYSYWWTSGYDYWGQGTQVTVSS", "polyreactivity (PSR sort gate)": "high polyreactivity"}
